Target: Nicotinamide N-methyltransferase (Homo sapiens, UniProt P40261)
Sequence (P40261 whole entry): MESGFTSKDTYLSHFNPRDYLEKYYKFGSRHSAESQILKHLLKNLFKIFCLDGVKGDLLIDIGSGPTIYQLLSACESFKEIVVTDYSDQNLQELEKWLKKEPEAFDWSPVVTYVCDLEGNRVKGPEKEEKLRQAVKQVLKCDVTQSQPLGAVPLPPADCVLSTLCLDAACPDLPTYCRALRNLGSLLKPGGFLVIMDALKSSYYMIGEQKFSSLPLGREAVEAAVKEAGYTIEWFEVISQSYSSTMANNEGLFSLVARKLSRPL
Experiment: Binding affinity to recombinant human NNMT SAM binding site expressed in Escherichia coli BL21 (DE3) using nicotinamide as substrate and AdoMet as cofactor preincubated for 10 mins followed by substrate addition and measured after 10 mins by UHP-HILIC-MS analysis
pIC50: −log10 of the molar value.
MEASURED_QUANTITY: pIC50

>  <SMILES_STRUCTURE>
Nc1ncnc2c1ncn2[C@@H]1O[C@H](CSCC[C@H](N)C(=O)O)[C@@H](O)[C@H]1O

>  <EXPERIMENTAL_VALUE>
4.58

$$$$
>  <SMILES_STRUCTURE>
Nc1ncnc2c1ncn2[C@@H]1O[C@H](C[C@@H](N)CC[C@H](N)C(=O)O)[C@@H](O)[C@H]1O

>  <EXPERIMENTAL_VALUE>
5.41

$$$$

----------
Molecular target: Nicotinamide N-methyltransferase (Homo sapiens)
Sequence (P40261 whole entry): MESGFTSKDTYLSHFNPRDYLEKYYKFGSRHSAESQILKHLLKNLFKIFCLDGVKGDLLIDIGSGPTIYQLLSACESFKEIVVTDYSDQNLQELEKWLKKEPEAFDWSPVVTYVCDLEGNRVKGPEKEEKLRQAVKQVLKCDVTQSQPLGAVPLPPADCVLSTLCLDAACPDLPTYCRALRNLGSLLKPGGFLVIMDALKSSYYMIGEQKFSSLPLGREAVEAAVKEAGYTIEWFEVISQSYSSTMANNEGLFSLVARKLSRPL
Assay: Inhibition of endogenous human NNMT overexpressed in human U2OS cells assessed incubated for 24 hrs by LC-MS/MS analysis

>  <SMILES_STRUCTURE>
COc1ccc(C(N)=O)cn1

>  <IC50 (µM)>
1.6

$$$$

----------
Molecular target: Nicotinamide N-methyltransferase (Homo sapiens, UniProt P40261)
Test: Inhibition of NNMT (unknown origin) assessed as formation of MNA using nicotinamide as substrate and SAM as cofactor by fluorescence based assay
pIC50: −log10 of the molar value.
MEASURED_QUANTITY: pIC50

>  <COMPOUND>
C=C(C)[C@@]12O[C@@]3(/C=C/C=C/CCCCC)O[C@@H]1[C@@H]1[C@@H]4O[C@]4(CO)[C@@H](O)[C@]4(O)C(=O)C(C)=C[C@H]4[C@@]1(O3)[C@H](C)[C@H]2OC(C)=O [YUANHUADINE]

>  <MEASURED_QUANTITY>
pIC50

>  <EXPERIMENTAL_VALUE>
5.40

$$$$

Origin of measurements: BindingDB's records for doi:10.1021/jm00047a011
